Biological target: T1, human IL-23 (human, UniProt P29460 23-328; Q9NPF7 20-189)
T1 construct: Recombinant (Ebioscience); HIS-tagged in flow cytometry, biotinylated in some assays; also called hIL-23; rhIL-23
T1 sequence 1: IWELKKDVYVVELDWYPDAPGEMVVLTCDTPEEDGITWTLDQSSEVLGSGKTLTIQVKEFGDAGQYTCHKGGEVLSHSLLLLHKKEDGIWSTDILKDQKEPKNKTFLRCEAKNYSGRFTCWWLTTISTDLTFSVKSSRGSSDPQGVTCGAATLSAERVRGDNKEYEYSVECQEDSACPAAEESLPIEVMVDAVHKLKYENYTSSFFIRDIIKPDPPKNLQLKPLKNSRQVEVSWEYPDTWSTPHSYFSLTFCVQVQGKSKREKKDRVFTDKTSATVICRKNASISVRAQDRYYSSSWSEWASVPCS
T1 sequence 2: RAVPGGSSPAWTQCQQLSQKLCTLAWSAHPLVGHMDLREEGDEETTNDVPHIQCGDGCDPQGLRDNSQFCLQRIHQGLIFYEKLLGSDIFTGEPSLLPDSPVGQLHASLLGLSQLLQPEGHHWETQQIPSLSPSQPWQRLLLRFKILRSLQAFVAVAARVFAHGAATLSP
Test: ELISA, coated IL-23

Binder | binding result
Antibody 12 (antibody, human IgG1, kappa, V domains shown) VH: EVQLQQSGADLVRSGASIKLSCTASGFNIKDYYMHWVKQRPEQGLEWIGWIDPENGDTEYAPKFQGKATMTADTSSNTAYLQLSSLTSEDTAVYYCNAHKELRYFDVWGAGTTVTVSS VL: DIVLTQSPATLSVTPGDSVSLSCRASQSISINLHWYQQKSHESPRLLIKFASQSISGIPSRFSGYGSGTDFTLSINSVETEDFGRYFCQQSNSWPLTFGAGTKLELKR | binds
Antibody 11 (antibody, human IgG1, kappa, V domains shown) VH: EVQLQQSGADLVRSGASIKLSCTASGFNIKDYYMHWVKQRPEQGLEWIGWIDPENGDTEYAPKFQGKATMTADTSSNTAYLQLSSLTSEDTAVYYCNAGKELRYFDVWGAGTTVTVSS VL: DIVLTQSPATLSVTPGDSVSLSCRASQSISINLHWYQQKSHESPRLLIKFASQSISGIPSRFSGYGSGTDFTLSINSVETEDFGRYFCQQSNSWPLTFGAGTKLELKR | binds
Antibody 13 (antibody, human IgG1, kappa, V domains shown) VH: EVQLQQSGADLVRSGASIKLSCTASGFNIKDYYMHWVKQRPEQGLEWIGWIDPENGDTEYAPKFQGKATMTADTSSNTAYLQLSSLTSEDTAVYYCNAIKELRYFDVWGAGTTVTVSS VL: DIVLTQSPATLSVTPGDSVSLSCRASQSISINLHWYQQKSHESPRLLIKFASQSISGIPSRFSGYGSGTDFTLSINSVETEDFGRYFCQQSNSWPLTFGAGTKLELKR | binds

All figures here come from patent US20110262445A1.
